target: human autotaxin (Homo sapiens (Human), UniProt Q13822)
Quantity Name: IC50

Previously resolved entries follow.
> print(dat)
                               query.smiles                         system.under.test  data.value
1  NC(=O)NCCn1cc(-n2c(C3CC3)c(Sc3cccc(C(=O)O)c3F)c3ccc(Cl)c(F)c32)cn1  human autotaxin (Homo sapiens (Human), UniProt Q13822)    < 0.5 µM
2  CCCn1cc(-n2c(C3CC3)c(Sc3cccc(C(=O)O)c3)c3ccc(Cl)cc32)cn1  human autotaxin (Homo sapiens (Human), UniProt Q13822)    < 0.5 µM
3  CCn1cc(-n2c(C3CC3)c(Sc3cccc(CC(=O)O)c3F)c3ccc(Cl)c(F)c32)cn1  human autotaxin (Homo sapiens (Human), UniProt Q13822)    < 0.5 µM

Task: // fetch human autotaxin (Homo sapiens (Human), UniProt Q13822) IC50 for CCn1cc(-n2c(C3CC3)c(Sc3cccc(C(=O)O)n3)c3ccc(Cl)c(F)c32)cn1
Result: < 0.5 µM

Task: // fetch human autotaxin (Homo sapiens (Human), UniProt Q13822) IC50 for CCCn1cc(-n2c(C3CC3)c(Sc3cccc(C(=O)O)c3)c3ccc(Cl)c(F)c32)cn1
Result: < 0.5 µM

* * *

target: human autotaxin (Homo sapiens (Human), UniProt Q13822); assay: Human Autotaxin Assay (choline release from LPC, Hep3B conditioned media); assay type: biochemical; conditions: ATX activity in concentrated conditioned media from Hep3B cells, substrate LPC
Quantity Name: IC50

> print(dat)
                                   compound  quantity.name  data.value
1  CCCn1cc(-n2c(Cl)c(Sc3cccc(C(=O)O)c3)c3ccc(Cl)c(F)c32)cn1 [Compound 1-7]           IC50    < 500 nM
2  NC(=O)CCCn1cc(-n2c(C3CC3)c(Sc3cccc(C(=O)O)c3F)c3ccc(Cl)c(F)c32)cn1 [Compound 1-125]           IC50    < 500 nM
3  O=C(O)c1cccc(Sc2c(C3CC3)n(-c3cnn(CCO)c3)c3c(F)c(Cl)ccc23)c1F [Compound 1-120]           IC50    < 500 nM

Task: Return reported IC50; argument: O=C(O)c1cccc(Sc2c(C3CC3)n(-c3cnn(CC(F)(F)F)c3)c3c(F)c(Cl)ccc23)c1F [Compound 1-126]
Result: < 500 nM

Data origin: patent US11344533B2
